Target: UniProt:Q12809
Sequence (Q12809 whole entry): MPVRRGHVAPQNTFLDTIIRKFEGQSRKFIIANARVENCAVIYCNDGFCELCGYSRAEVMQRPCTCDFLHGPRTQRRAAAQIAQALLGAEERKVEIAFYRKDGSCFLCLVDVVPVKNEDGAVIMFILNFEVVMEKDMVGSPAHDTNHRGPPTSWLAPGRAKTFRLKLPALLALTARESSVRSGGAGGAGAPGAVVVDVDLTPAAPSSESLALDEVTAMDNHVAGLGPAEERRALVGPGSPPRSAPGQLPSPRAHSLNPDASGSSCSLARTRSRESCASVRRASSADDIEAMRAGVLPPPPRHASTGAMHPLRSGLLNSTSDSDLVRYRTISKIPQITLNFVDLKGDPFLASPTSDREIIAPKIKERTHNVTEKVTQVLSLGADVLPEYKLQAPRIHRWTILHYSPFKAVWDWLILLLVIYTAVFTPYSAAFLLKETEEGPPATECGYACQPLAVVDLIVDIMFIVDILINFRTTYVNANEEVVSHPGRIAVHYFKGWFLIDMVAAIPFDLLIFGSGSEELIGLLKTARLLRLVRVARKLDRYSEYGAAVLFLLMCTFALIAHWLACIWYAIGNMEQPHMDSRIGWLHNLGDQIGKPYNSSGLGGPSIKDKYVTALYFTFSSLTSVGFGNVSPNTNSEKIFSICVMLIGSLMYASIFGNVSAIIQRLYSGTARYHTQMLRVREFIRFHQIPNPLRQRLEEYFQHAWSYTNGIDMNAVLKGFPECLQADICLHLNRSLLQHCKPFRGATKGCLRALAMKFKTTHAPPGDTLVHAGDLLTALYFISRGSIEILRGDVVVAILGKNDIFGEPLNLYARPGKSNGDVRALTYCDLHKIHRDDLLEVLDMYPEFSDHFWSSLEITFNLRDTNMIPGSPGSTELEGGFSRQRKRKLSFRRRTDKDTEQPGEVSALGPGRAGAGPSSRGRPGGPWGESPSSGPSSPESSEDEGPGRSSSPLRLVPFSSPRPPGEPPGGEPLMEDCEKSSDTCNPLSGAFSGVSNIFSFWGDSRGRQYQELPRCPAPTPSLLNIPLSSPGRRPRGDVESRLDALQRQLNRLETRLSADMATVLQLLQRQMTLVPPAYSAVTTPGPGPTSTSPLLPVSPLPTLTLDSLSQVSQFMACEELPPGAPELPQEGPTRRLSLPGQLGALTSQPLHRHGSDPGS
Experiment: Inhibition of human ERG expressed in HEK293 cells at 30 nM at holding potential of -80 mV by whole cell patch clamp assay relative to control
Type: cell-based
Conditions: HEK293 cells expressing human ERG
measure_name: inhibition at 0.03 µM
Just so you know, I need the unit written after the number.

Task: // fetch inhibition at 0.03 µM given entry CNC(=O)C(CCN1CCC(O)(c2ccc(Cl)cc2)CC1)(c1ccccc1)c1ccccc1
Output: 5.9%

###

Test: Protein binding to human plasma at 30 to 1000 ng/ml after 2 to 6 hrs by LC-MS/MS based rapid equilibrium dialysis method
Assay type: ADME, cell-free
Settings: read-out: PPB (converted)
measure_name: fraction unbound
Number, no unit, nothing else.

Task: // fetch fraction unbound given entry CNC(=O)C(CCN1CCC(O)(c2ccc(Cl)cc2)CC1)(c1ccccc1)c1ccccc1
Output: 0.043

###

Biological target: KvLQT1/minK (Kv7.1/minK) potassium channel (Homo sapiens, UniProt P51787+Q8N4C8)
Sequence (P51787 whole entry): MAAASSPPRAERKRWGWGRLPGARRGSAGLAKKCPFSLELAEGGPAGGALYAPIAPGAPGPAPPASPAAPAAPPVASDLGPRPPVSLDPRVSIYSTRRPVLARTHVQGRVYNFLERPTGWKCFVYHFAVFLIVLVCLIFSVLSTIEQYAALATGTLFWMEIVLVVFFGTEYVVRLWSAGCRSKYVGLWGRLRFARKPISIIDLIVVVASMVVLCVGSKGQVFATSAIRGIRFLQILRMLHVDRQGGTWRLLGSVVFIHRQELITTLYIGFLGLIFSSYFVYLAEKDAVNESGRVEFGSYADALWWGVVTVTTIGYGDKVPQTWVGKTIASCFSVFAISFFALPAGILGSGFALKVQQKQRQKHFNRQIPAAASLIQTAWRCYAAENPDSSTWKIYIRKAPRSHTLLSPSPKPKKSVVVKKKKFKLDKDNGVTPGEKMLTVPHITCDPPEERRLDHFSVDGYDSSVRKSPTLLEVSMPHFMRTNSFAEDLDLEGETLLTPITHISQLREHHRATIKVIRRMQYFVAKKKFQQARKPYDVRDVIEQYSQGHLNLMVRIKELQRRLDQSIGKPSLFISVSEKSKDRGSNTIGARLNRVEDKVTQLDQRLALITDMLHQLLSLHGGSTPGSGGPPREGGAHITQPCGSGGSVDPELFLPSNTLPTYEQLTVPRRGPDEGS
Sequence (Q8N4C8 whole entry): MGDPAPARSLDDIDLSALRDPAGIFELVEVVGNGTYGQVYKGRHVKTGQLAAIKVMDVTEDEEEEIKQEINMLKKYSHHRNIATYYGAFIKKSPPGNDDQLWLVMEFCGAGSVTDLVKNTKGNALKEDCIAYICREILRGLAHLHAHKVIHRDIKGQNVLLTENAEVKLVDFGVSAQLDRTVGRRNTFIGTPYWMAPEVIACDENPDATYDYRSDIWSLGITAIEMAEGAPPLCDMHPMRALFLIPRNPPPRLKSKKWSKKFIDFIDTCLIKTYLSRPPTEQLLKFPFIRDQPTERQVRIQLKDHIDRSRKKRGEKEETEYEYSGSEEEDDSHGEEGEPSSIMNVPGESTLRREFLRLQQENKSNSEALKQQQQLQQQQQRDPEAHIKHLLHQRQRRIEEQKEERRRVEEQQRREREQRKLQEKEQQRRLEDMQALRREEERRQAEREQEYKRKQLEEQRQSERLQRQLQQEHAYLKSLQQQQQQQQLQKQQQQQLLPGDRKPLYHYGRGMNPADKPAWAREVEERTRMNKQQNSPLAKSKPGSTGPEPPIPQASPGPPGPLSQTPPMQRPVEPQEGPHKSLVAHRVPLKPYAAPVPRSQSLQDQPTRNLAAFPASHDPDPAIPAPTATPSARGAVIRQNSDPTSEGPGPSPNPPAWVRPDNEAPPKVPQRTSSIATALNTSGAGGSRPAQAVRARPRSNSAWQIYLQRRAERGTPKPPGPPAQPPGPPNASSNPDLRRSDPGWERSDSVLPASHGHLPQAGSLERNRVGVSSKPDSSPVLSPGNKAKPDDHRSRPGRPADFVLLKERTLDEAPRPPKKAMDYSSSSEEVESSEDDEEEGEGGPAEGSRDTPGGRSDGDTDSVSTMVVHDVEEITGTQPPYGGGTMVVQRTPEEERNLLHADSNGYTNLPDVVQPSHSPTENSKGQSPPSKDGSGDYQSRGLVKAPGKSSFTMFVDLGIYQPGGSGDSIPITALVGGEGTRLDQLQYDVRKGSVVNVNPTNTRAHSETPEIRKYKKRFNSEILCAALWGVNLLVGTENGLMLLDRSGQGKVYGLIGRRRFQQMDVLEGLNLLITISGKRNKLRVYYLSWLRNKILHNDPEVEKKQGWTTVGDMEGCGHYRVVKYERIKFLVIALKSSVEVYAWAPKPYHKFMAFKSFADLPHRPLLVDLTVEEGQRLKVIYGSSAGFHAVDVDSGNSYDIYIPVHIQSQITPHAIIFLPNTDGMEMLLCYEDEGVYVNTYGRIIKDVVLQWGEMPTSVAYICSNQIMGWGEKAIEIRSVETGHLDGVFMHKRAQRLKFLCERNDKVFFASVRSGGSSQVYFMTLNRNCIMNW
Assay: Inhibition of human KvLQT1/minK channel expressed in CHO cells at 10 uM at holding potential of -80 mV by whole cell patch clamp assay relative to control
Format: cell-based
Conditions: CHO cells expressing human KvLQT1/minK channel
measure_name: inhibition at 10 µM

# molecule, tgt, inhibition at 10 µM
measured = [
    ("CNC(=O)C(CCN1CCC(O)(c2ccc(Cl)cc2)CC1)(c1ccccc1)c1ccccc1", "KvLQT1/minK (Kv7.1/minK) potassium channel (Homo sapiens, UniProt P51787+Q8N4C8)", "23%"),
]

Task: // fetch inhibition at 10 µM given entry CN(C)C(=O)C(CCN1CCC(O)(c2ccc(Cl)cc2)CC1)(c1ccccc1)c1ccccc1 [LOPERAMIDE]
Output: 65%
